Tested on: Escherichia coli
Test: Antibacterial activity against Escherichia coli 107 ATCC 25922 assessed as bacterial growth inhibition by susceptibility testing assay
Assay type: functional
Conditions: Escherichia coli, 107 ATCC 25922; read-out: MIC
Entries and their log10(MIC) values follow.
Plainly stated, the numbers are log10 of MIC given in µg/mL.

Worked examples follow.
- Compound: "CN(C)[C@@H]1C(O)=C(C(N)=O)C(=O)[C@@]2(O)C(O)=C3C(=O)c4c(O)c5c(c(F)c4C[C@H]3C[C@@H]12)[C@H]1N(C)CC[C@@]1(C)CN5"
  Recorded Value: -0.60
- Compound: "CN(C)[C@@H]1C(O)=C(C(N)=O)C(=O)[C@@]2(O)C(O)=C3C(=O)c4c(O)c5c(c(F)c4C[C@H]3C[C@@H]12)C1NCCC1CN5 (mixture of isomers)"
  Recorded Value: -0.30

Challenge: Request: log10(MIC), test system Escherichia coli, entry `CN(C)CCN1CC[C@H]2CNc3c(O)c4c(c(F)c3[C@H]21)C[C@H]1C[C@H]2[C@H](N(C)C)C(O)=C(C(N)=O)C(=O)[C@@]2(O)C(O)=C1C4=O`
Response given: 0.90

Challenge: Entry to check: `CN(C)[C@@H]1C(O)=C(C(N)=O)C(=O)[C@@]2(O)C(O)=C3C(=O)c4c(O)cccc4[C@@](C)(O)[C@H]3C[C@@H]12`
Response given: 0.00

Challenge: Please do the same for CN(C)[C@@H]1C(O)=C(C(N)=O)C(=O)[C@@]2(O)C(O)=C3C(=O)c4c(O)c5c(c(OC(F)(F)F)c4C[C@H]3C[C@@H]12)[C@@H]1[C@H](CN5)CC2COCCN21 (some centres not stated) as well.
Response given: 0.60

Challenge: Moving on to CN(C)[C@@H]1C(O)=C(C(N)=O)C(=O)[C@@]2(O)C(O)=C3C(=O)c4c(O)c5c(c(OC(F)(F)F)c4C[C@H]3C[C@@H]12)[C@@H]1[C@H](CN5)CC2CCCN21 (some centres not stated)
Response given: -1.20

---

Parameter MIC: see the listing below.
Test system: Acinetobacter baumannii
Assay: Antibacterial activity against tet(B) tetracycline-resistant Acinetobacter baumannii 250 assessed as bacterial growth inhibition by susceptibility testing assay
Format: functional
Conditions: Acinetobacter baumannii, 250; read-out: MIC
Just the number in µg/mL, nothing appended.

Solved entries:
- Compound: "CN(C)[C@@H]1C(O)=C(C(N)=O)C(=O)[C@@]2(O)C(O)=C3C(=O)c4c(O)c5c(c(OC(F)(F)F)c4C[C@H]3C[C@@H]12)[C@@H]1[C@H](CN5)CC2COCCN21 (stereo partly specified)"
  Readout Unit: "µg/mL"
  MIC: 16
- Compound: "CN(C)[C@@H]1C(O)=C(C(N)=O)C(=O)[C@@]2(O)C(O)=C3C(=O)c4c(O)c5c(c(F)c4C[C@H]3C[C@@H]12)[C@@H]1[C@@H](CCN1CCNCC(F)F)CN5"
  Readout Unit: "µg/mL"
  MIC: 8
- Compound: "CN(C)[C@@H]1C(O)=C(C(N)=O)C(=O)[C@@]2(O)C(O)=C3C(=O)c4c(O)c5c(c(OC(F)(F)F)c4C[C@H]3C[C@@H]12)[C@@H]1[C@H](CN5)CC2CCCCN21 (stereo partly specified)"
  Readout Unit: "µg/mL"
  MIC: 2

Challenge: Fill in the blank: the reported MIC of CN(C)[C@@H]1C(O)=C(C(N)=O)C(=O)[C@@]2(O)C(O)=C3C(=O)c4c(O)c5c(c(OC(F)(F)F)c4C[C@H]3C[C@@H]12)[C@@H]1[C@H](CN5)CC2CCCN21 (stereo partly specified) is ____.
Response given: 16

Challenge: Then `CCN1CC[C@H]2CNc3c(O)c4c(c(F)c3[C@H]21)C[C@H]1C[C@H]2[C@H](N(C)C)C(O)=C(C(N)=O)C(=O)[C@@]2(O)C(O)=C1C4=O` ?
Response given: 2

---

Test system: Enterococcus faecium
Experiment: Antibacterial activity against tet(M) tetracycline-resistant Enterococcus faecium 404 assessed as bacterial growth inhibition by susceptibility testing assay
Format: functional
Conditions: Enterococcus faecium, 404; read-out: MIC
Measured Attribute: MIC (µg/mL)
Number in µg/mL, nothing else.

- Molecule: "CN(C)[C@@H]1C(O)=C(C(N)=O)C(=O)[C@@]2(O)C(O)=C3C(=O)c4c(O)c5c(c(OC(F)(F)F)c4C[C@H]3C[C@@H]12)[C@@H]1[C@H](CN5)CC2CCCN21 (stereo partly drawn)"
  MIC [µg/mL]: 0.0625
- Molecule: "CN(C)[C@@H]1C(O)=C(C(N)=O)C(=O)[C@@]2(O)C(O)=C3C(=O)c4c(O)c5c(c(OC(F)(F)F)c4C[C@H]3C[C@@H]12)C1NCCC1CN5 (mixture of isomers)"
  MIC [µg/mL]: 0.25

In the following, a different molecule is considered.
Challenge: Sample `CN(C)[C@@H]1C(O)=C(C(N)=O)C(=O)[C@@]2(O)C(O)=C3C(=O)c4c(O)c5c(c(F)c4C[C@H]3C[C@@H]12)[C@H]1N(C)CC[C@@]1(C)CN5` — what was its MIC?
Response given: 4

---

In this section, each of the compounds is paired with its reported MIC.
Test system: Enterococcus faecium
Test: Antibacterial activity against tet(M) tetracycline-resistant Enterococcus faecium 404 assessed as bacterial growth inhibition by susceptibility testing assay
Assay type: functional
Settings: Enterococcus faecium, 404; read-out: MIC
The number alone won't do; follow it with the unit.

Worked cases, answers included:
- Compound: "CN(C)[C@@H]1C(O)=C(C(N)=O)C(=O)[C@@]2(O)C(O)=C3C(=O)c4c(O)c5c(c(F)c4C[C@H]3C[C@@H]12)C1NCCC1CN5 (mixture of isomers)"
  Measured Attribute: "MIC"
  Recorded Value: "1 µg/mL"
- Compound: "CN(C)[C@@H]1C(O)=C(C(N)=O)C(=O)[C@@]2(O)C(O)=C3C(=O)c4c(O)c5c(c(OC(F)(F)F)c4C[C@H]3C[C@@H]12)[C@@H]1[C@H](CN5)CC2COCCN21 (stereo not given in full)"
  Measured Attribute: "MIC"
  Recorded Value: "0.25 µg/mL"
- Compound: "CN(C)[C@@H]1C(O)=C(C(N)=O)C(=O)[C@@]2(O)C(O)=C3C(=O)c4c(O)c5c(c(F)c4C[C@H]3C[C@@H]12)[C@@H]1[C@@H](CCN1CCO)CN5"
  Measured Attribute: "MIC"
  Recorded Value: "1 µg/mL"
- Compound: "CN(C)[C@@H]1C(O)=C(C(N)=O)C(=O)[C@@]2(O)C(O)=C3C(=O)c4c(O)c5c(c(F)c4C[C@H]3C[C@@H]12)[C@H]1NCC[C@@]1(C)CN5"
  Measured Attribute: "MIC"
  Recorded Value: "1 µg/mL"

Challenge: Find the recorded MIC belonging to `CN(C)[C@@H]1C(O)=C(C(N)=O)C(=O)[C@@]2(O)C(O)=C3C(=O)c4c(O)c5c(c(F)c4C[C@H]3C[C@@H]12)[C@@H]1[C@@H](CCN1CCNCC(F)F)CN5` and report it.
Response given: 0.0625 µg/mL

---

System: Staphylococcus aureus
Assay: Antibacterial activity against tet(K) tetracycline-resistant Staphylococcus aureus 158 assessed as bacterial growth inhibition by susceptibility testing assay
Type: functional
Conditions: Staphylococcus aureus, 158; read-out: MIC
Measured Attribute: MIC (µg/mL)
Provide the reading as a plain figure in µg/mL.

Worked examples, 2 compounds total:
- Compound: "CN(C)c1cc(NC(=O)CNC(C)(C)C)c(O)c2c1C[C@H]1C[C@H]3[C@H](N(C)C)C(O)=C(C(N)=O)C(=O)[C@@]3(O)C(O)=C1C2=O [TIGECYCLINE]"
  MIC, µg/mL: 0.125
- Compound: "CC(=O)N(C)CCN1CCC2CNc3c(O)c4c(c(F)c3C21)C[C@H]1C[C@H]2[C@H](N(C)C)C(O)=C(C(N)=O)C(=O)[C@@]2(O)C(O)=C1C4=O (mixture of isomers)"
  MIC, µg/mL: 1

Challenge: Report MIC for `CN(C)[C@@H]1C(O)=C(C(N)=O)C(=O)[C@@]2(O)C(O)=C3C(=O)c4c(O)c5c(c(F)c4C[C@H]3C[C@@H]12)[C@@H]1[C@@H](CCN1CCNCC(F)F)CN5` please.
Response given: 0.0312

---

Parameter MIC: see the listing below.
Tested on: Enterococcus faecium
Test: Antibacterial activity against tet(M) tetracycline-resistant Enterococcus faecium 404 assessed as bacterial growth inhibition by susceptibility testing assay
Assay type: functional
Details: Enterococcus faecium, 404; read-out: MIC
Use µg/mL as the unit, but write only the number.

Guide cases for MIC, answers given:
- Compound: "CN(C)CCN1CC[C@H]2CNc3c(O)c4c(c(F)c3[C@H]21)C[C@H]1C[C@H]2[C@H](N(C)C)C(O)=C(C(N)=O)C(=O)[C@@]2(O)C(O)=C1C4=O"
  Readout Unit: "µg/mL"
  MIC: 4
- Compound: "CC(=O)N(C)CCN1CCC2CNc3c(O)c4c(c(F)c3C21)C[C@H]1C[C@H]2[C@H](N(C)C)C(O)=C(C(N)=O)C(=O)[C@@]2(O)C(O)=C1C4=O (mixture of isomers)"
  Readout Unit: "µg/mL"
  MIC: 32

Challenge: Name the reported MIC value associated with the compound `CCCN1CC[C@@]2(C)CNc3c(O)c4c(c(F)c3[C@@H]12)C[C@H]1C[C@H]2[C@H](N(C)C)C(O)=C(C(N)=O)C(=O)[C@@]2(O)C(O)=C1C4=O`
Response given: 4

Challenge: Same again, this time with `CCN1CC[C@H]2CNc3c(O)c4c(c(F)c3[C@H]21)C[C@H]1C[C@H]2[C@H](N(C)C)C(O)=C(C(N)=O)C(=O)[C@@]2(O)C(O)=C1C4=O`
Response given: 0.0625

Challenge: Repeat with `CN(C)c1cc(NC(=O)CNC(C)(C)C)c(O)c2c1C[C@H]1C[C@H]3[C@H](N(C)C)C(O)=C(C(N)=O)C(=O)[C@@]3(O)C(O)=C1C2=O`
Response given: 0.0312

Challenge: Let us now turn to CC1C[C@H]2CNc3c(O)c4c(c(OC(F)(F)F)c3[C@H]2N1C)C[C@H]1C[C@H]2[C@H](N(C)C)C(O)=C(C(N)=O)C(=O)[C@@]2(O)C(O)=C1C4=O (stereo partly drawn)
Response given: 0.0312
